Measured protein stability index by item
assay-explanation: protein stability index of a GFP-peptide fusion (yeast GPS) (PSI 1-4); higher = more stable; sorted into four equal gates, so the index is relative within each strain
test-parameters: ubr1∆

input-sequence	protein stability index
WKEVMFDPSKDVLINEL [CDC53]	1.91
RARGPMQVLTRQPVEGR [RPB2]	2.98
NRHNLLNDVVSFLFSAI [SWI1]	2.4
LLFKARLQQQQAQAQAQ [GAL11]	1.5
MGPLSNIAQMIPGMSNM [SRP54]	2.69
QERKDFLKKVMDTIQDK [ECM29]	3.17
MGKGKPRGLNSARKLRV [RPS23A]	2.79
LISDSNINNSSVAEKEE [SWI3]	1.55
QEGLAKFGACVAQGIMN [RPN2]	1.58
IVHDDPASDDILDNINH [ITC1]	3.25
YGRKSFRNNKNDNYSSD [REC8]	3.14
IVWRFISENTFPNGFKN [RPC34]	2.33
RLLEKSELPDIYSRDIG [SNF2]	3.21

====

assay-explanation: protein stability index of a GFP-peptide fusion (yeast GPS) (PSI 1-4); higher = more stable; sorted into four equal gates, so the index is relative within each strain
test-parameters: ubr1∆

input-sequence	protein stability index
ILHVRAQYCYKNGLYQE [SRP72]	3.25
EIMQQKFPATNVTTILD [ECM29]	2.45
EVCAKMPNIELYLKVIP [SSN2]	2.26
YSFGGLLMRLEGNYRNL [RPB8]	2.56
NNSTGIANDNVITPHFI [SWI1]	2.9
VSGNNASDEPSRKKNRR [SSN3]	2.91
GGFEYFLQPLLLVGLIK [NUT1]	1.87
HGGSRYATKDGVAHLLN [QCR2]	3.09
NSNKQAVAILADDEKSD [BRR2]	2.88
EKLDVSRSSVCVKAIEA [YCG1]	2.11
VLEERERGQKVKNVKNS [ARP9]	1.19

====

assay-explanation: protein stability index of a GFP-peptide fusion (yeast GPS) (PSI 1-4); higher = more stable; sorted into four equal gates, so the index is relative within each strain
test-parameters: doa10∆
Listed here are sequences together with their documented protein stability index.
endpoint: protein stability index

input-sequence	reading
NPMVPSSVNEDTFLPPP [PRP8]	3.05
NIEERKEKIQHELGINI [BRR2]	3.02
RYEEFADKVKLGRVRNH [RPC40]	2.93
EVRQETQPKAEATQDDD [NUT1]	3.08
FDDACNQIWNIALNLAS [SSN2]	3.01
ENSANSTVASALDTNGT [SIR4]	3.08
NDSSATRSWRPPQAGDR [RPB8]	3.06

====

assay-explanation: protein stability index of a GFP-peptide fusion (yeast GPS) (PSI 1-4); higher = more stable; sorted into four equal gates, so the index is relative within each strain
test-parameters: doa10∆

input-sequence	protein stability index
SYPVNGSQKTFEIDDEH [RPS6A]	2.98
VTLFQMAILLLYNDADV [CDC53]	2.03
KKCHRLLWTPKKLEITS [RPR2]	2.35
HVKVNDKKEMTIYNNIR [SIR3]	3.04
PSDWQRNSFIRDMIMKR [ITC1]	3.01
FPQTAMLRRHAAPPSTN [DIS3]	1.89
VHPDYLYGAITEDRYNE [FAS2]	1.08
SNADTNQNSDMKKKLEL [SRB8]	3.14
VRSREDRKNRAPPQRPR [RPS26A]	3.27
ETPKSNNSLSYHSGRLL [ITC1]	3.22
AFRTLRLARSEKKFRGI [RPL13A]	3.4
DDVKNILNAKYTKETYQ [RPN6]	3.26
SAAMSIDKLSDVVMKAT [PRP8]	2.46
GASVISLTKDKSIRKDT [SIR4]	3

====

assay-explanation: protein stability index of a GFP-peptide fusion (yeast GPS) (PSI 1-4); higher = more stable; sorted into four equal gates, so the index is relative within each strain
test-parameters: pdr5∆

input-sequence	protein stability index
IFCVGSGQTFAYGVLDS [PRE2]	2.04
SKNCYLSEATESDLYKL [RPB2]	3.22
TLSVSHGINLQNKKNLK [SSN2]	2.62
SRSRSSIRSISPAGKYK [ESC2]	2.96
AFFREKGLVSQQLDSFN [RPB2]	3.17
ERTKLQEHTIFTQLKKN [SNU114]	2
AINPGRVAASFSQEALQ [FAS1]	2.53
IQQHARYDCSFCGKKTV [RPL43A]	2.94
NPSQGVSNSGAQDEEIH [UBP6]	2.22
EFNFTNLQAKPLVGKPK [YAR002W/NUP60]	2.35
IDMHLIYGVEWLIEGKL [YDL116W/NUP84]	2.58
PRALQPSQFGMLCTADT [RET1]	1.57
SYAVSPYAQKPLQGIFH [QCR8]	2.4
ARTAANSIYCPTQTVAE [RPN6]	1.76
NNTNTGASGVDDFQNFF [SWI1]	3.16
TSKMNLSEDVNLETLVT [RPT2]	2.85
FEYEGVQDIIGNGKLSE [RPN1]	2.85
PRQRMEEVVSNDEGVWD [PRP8]	3.45
NLKEYNKFMSIFLKRKD [SRB8]	2.22
MRDKSFGRTLASVTKEI [RPL12A]	3.08
FILTIATAFLGYCCVYG [COB]	1.27
SKIQEIESIRSCKDSQL [YIL149C/MLP2]	2.92
NDILDELLCGMANKEWR [ECM29]	1.47
VVGTETRVNAQLESYEY [RRI1]	1.65
IIPTTLEEQQQLEDESS [YML103C/NUP188]	1.66
LEQDLHFENAKVIDLDT [YIL149C/MLP2]	3.32
QGGAMNKKSEQALDISK [SRP72]	3.12
VPQSEETRAELSQLCAV [RPO21]	3.02
LQNKSFKSVLPIVLLNT [UBP6]	1.45
TGWITQSTPVLLNHGER [RPN1]	2.23
SNVFGSNNSTTNTFGSN [YJL041W/NSP1]	3.44
EEKKKEHEEKEKERETN [RPN2]	3.37
ASSSAKLIEKKSAYANT [SMC2]	2.55
VVEGVTFVVEQLIKQSI [SNU114]	2.6
LICQNNLNAFVDFSKYN [SRP72]	2.99

====

protein stability index overview
assay-explanation: protein stability index of a GFP-peptide fusion (yeast GPS) (PSI 1-4); higher = more stable; sorted into four equal gates, so the index is relative within each strain
test-parameters: pdr5∆

input-sequence	protein stability index
DLFGDSNKSNSTNESNK [SSN2]	3.3
VVRIKGINKIPPKPRKV [RPL7A]	2.21
ISAFTQFLRLIFVSILS [ARP9]	1.88
TLSFNFSQKANKTKAVD [YOR098C/NUP1]	1.55
YKATATGPKQQEITTNL [SCL1]	3
GEENRVRFIGDSVAAIG [QCR2]	2.76
TSMNGVHNTVAAGNASS [SNF5]	2.74
EKLDVSRSSVCVKAIEA [YCG1]	2.16
SNADTNQNSDMKKKLEL [SRB8]	3.21
WMLSICVEWRLPEIAKE [YJR042W/NUP85]	1.37
LAGKYIPNLTAKPFQVT [FAS1]	2.76
PPKPRKVLQLLRLTRIN [RPL7A]	1.57
CYEKVLESINEGNQIIV [BRR2]	2.59
KKKAFTKYSAKYAQDGA [RPL3]	3.38
LYVPRKCSATNRIIKAD [RPS21A]	1.83
EVDSASDFISKLEYPHT [RPN3]	3.09
SITTGNDNENIVNNDLP [MED2]	2.78
AAFEKRYRVDLLNTDHT [RPO21]	3
EIIPLQDYYIIGANIYQ [MED6]	3.07
PMDAYLKLNHIIANINS [SNU114]	2.59
MAPSAKATAAKKAVVKG [RPL25]	2.56
IFGSGFGSADDTYPYLT [FAS1]	1.74
TTMFENTGWSCSRIIKI [RGR1]	3.45
ENDIEIKGPEFKFSGTV [YLR335W/NUP2]	3.04
FLQRIDFQIDGNIFELL [RRI2]	2.92
DLENKFNRLKKQAHEKL [YIL149C/MLP2]	2.71
NDEVNEDEEDDNISSFH [YCG1]	3.28
GFIFTSMILEAISTDKI [RRI2]	1.27
PDENHDNTSHDEQDDDN [BRN1]	3.2
NLKDLNNVKQMVMAGSK [RPO21]	1.95
ESGLVNADLDVKDELMF [RPO21]	3.27
ITTFVKRSTVPLNDGFV [YML103C/NUP188]	2.32
FSQTVADNNDLQESINH [ECM29]	3.08
AKPDNLANFSNEVAMNN [SWP82]	3.21
MLQKKLVEVEDEKIEAI [SRB7]	3.37
NKTSNNNNVTAVPAATP [SWI1]	3.06
TEQIKMRILSNDITNLQ [SRB8]	2.31
NGKEVPLAKIYLEENKS [MED1]	3.27
GGCDYIFSLLTGYPDEP [CYT1]	3.39
AHEIIKREEKAMTIYWD [CDC53]	2.18
IDLEAPVQIVKRITQIT [RPS20]	2.23
AYSNTNTNTENENRNTG [SNF11]	2.95

Where these numbers come from: the supplement of paper PMC9732359
